Molecular target: human LPA1 (Homo sapiens, UniProt Q92633)
Construct: expressed in transfected cells; host or cells: CHO-K1
Sequence (Q92633 whole entry): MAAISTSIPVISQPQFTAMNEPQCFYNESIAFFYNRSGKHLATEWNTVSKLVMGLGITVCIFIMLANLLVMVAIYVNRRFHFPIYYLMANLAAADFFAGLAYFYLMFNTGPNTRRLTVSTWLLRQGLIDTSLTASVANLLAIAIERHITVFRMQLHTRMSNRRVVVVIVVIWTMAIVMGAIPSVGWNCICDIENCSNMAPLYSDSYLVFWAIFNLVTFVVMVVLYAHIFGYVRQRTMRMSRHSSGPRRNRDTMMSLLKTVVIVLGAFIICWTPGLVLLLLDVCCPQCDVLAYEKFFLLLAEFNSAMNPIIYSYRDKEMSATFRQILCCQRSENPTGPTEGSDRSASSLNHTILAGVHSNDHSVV
Test: In vitro LPA1 calcium flux antagonist assay - Bioduro protocol
Assay type: cell-based
Conditions: Table B3; CHO-K1 cells overexpressing human LPA1 and G15a, LPA challenge at EC80; read-out: Activity (IC50 class)
pIC50: −log10 of the molar value.
Assay metric: pIC50

Solved cases below.
COc1cc(OC2CC2)cc(-c2ccc(NC3(C(=O)O)CCOCC3)cc2COC2CC2)c1 [Compound 332]; > 7.00
CCOc1cc(OC)cc(-c2ccc(NC3(C(=O)O)CCOCC3)cc2COC2CCCC2)c1 [Compound 315]; > 7.00
CCOc1cc(OC)cc(-c2ccc(C3(C(=O)O)CC3)cc2COC2CC2)c1F [Compound 382]; < 6.00

Ask | Tell me the measured pIC50 of CCOc1cc(-c2ccc(NC3(C(=O)O)CCOCC3)cc2COC2CC2)cc(OC)c1C [Compound 329] , please.
Reply | > 7.00

Ask | Tell me the measured pIC50 of COc1cc(-c2ccc(NC3(C(=O)O)CCOCC3)cc2CCC2(C)Oc3ccccc3O2)cc(OC)c1C [Compound 132] , please.
Reply | > 7.00

Ask | Tell me the measured pIC50 of COc1cc(-c2ccc(OC3(C(=O)O)CCOCC3)cc2COC2CC2)c(F)c(OC)c1C [Compound 343] , please.
Reply | < 6.00

Ask | Tell me the measured pIC50 of COc1cc(-c2c(COC3CCCC3)cc(NC3(C(=O)O)CCOCC3)cc2C(F)(F)F)cc(OC)c1C [Compound 275] , please.
Reply | 6.00 to 7.00

Ask | Tell me the measured pIC50 of CCOc1cccc(-c2ccc(OC3(C(=O)O)CCOCC3)cc2COC2CC2)c1Cl [Compound 374] , please.
Reply | > 7.00

Ask | Tell me the measured pIC50 of COc1c(C(C)=O)ccc(-c2ccc(NC3(C(=O)O)CCOCC3)cc2COC2CCCC2)c1C [Compound 189] , please.
Reply | > 7.00

====

Target: human LPA1 (Homo sapiens, UniProt Q92633)
Construct: expressed in transfected cells; host or cells: CHO-K1
Assay: In vitro LPA1 calcium flux antagonist assay - Bioduro protocol
Assay type: cell-based
Details: CHO-K1 cells overexpressing human LPA1 and G15a; LPA challenge at EC80; calcium mobilization on FLIPR Tetra; read-out: IC50
Here, each record is paired with measured IC50 data.

Solved cases below.
COc1cc(-c2ccc(NC3(C(=O)O)CCOCC3)cc2COC2(C)CCCC2)c(C)c(OC)c1C; 0.0112 µM
CCOc1cccc(-c2ccc(NC3(C(=O)O)CCOCC3)cc2COC2CCCC2)c1C(F)F; 0.00273 µM
COc1cc(-c2ccc(NC3(C(=O)O)CCOCC3)cc2COC2CC2)c(F)c(OC)c1C; 0.0165 µM
COc1cc(-c2ccc(NC3(C(=O)O)CC(OC)C3)cc2COC2Cc3ccccc3C2)cc(OC)c1C (single isomer, unassigned) [Compound 126]; 0.0321 µM
COc1cc(-c2ccc(NC3(C(=O)O)CCOCC3)cc2COC2COc3ccccc32)c(F)c(OC)c1C (single isomer, unassigned) [Compound 223]; 0.00476 µM
COc1cc(-c2ccc(NC3(C(=O)O)CC3)cc2COC2Cc3ccccc3C2)cc(OC)c1C; 0.0941 µM

Read the next record carefully.
Ask | Tell me the measured IC50 of COc1cc(-c2ccc(NC3(C(=O)O)CC(O)C3)cc2COC2Cc3ccccc3C2)cc(OC)c1C (stereo not shown) [Compound 131] , please.
Reply | 0.19 µM
